tested on: PPARg DBDmut:RXRa IVT, anti-PPARg (DBD mutation: PPARg1 K132A/R137A, NR concentration 270 nM, RXRa partner concentration 90 nM); assay: PBM binding z-score (relative to random genomic background probes); higher = stronger binding; sequences stand for … in GC…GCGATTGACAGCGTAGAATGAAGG
REPORTED PROPERTY: PBM binding z-score
No unit in the answer, only the number.

# count of solved cases: 3
[
  {
    "SEQUENCE": "TCTATTAGTTGATTAGAGCAACCGAAACAGCGGA",
    "RECORDED MEASUREMENT": 0.782
  },
  {
    "SEQUENCE": "TCATATAGGTAAATGCTAGCTGAAAGTCCGATCT",
    "RECORDED MEASUREMENT": 0.625
  },
  {
    "SEQUENCE": "TCTTGTAGATCACCAGGAGGTTAAGAAAGATCGA",
    "RECORDED MEASUREMENT": 0.392
  }
]

Data request: Entry "TCGAGTAGGTTAGTCGGGGCATCCAGCCAACATA" : reported PBM binding z-score = ?
Data returned: -0.561

Data request: Entry "ACTTACGTGTCAACGAGGTTATAGCACGCGTATA" : reported PBM binding z-score = ?
Data returned: 0.246

Data request: Entry "CCTATTAGTTGACCATAAGGGCAACCAAAGCTCG" : reported PBM binding z-score = ?
Data returned: 0.3

Data request: Entry "TGAATGAGGATAAAGATCAGGGAACGTGGCGTCG" : reported PBM binding z-score = ?
Data returned: -0.331

Data request: Entry "GCTGCTAGGTCAACTGGTGGTCAGCTAAAGCTCG" : reported PBM binding z-score = ?
Data returned: -0.118

Data request: Entry "ATCGAAAGGTCGACGAGGTTAGTATACACCGTTT" : reported PBM binding z-score = ?
Data returned: 1.2
